target: T1, recombinant purified FRα (ECL assay calibrator) (human, UniProt P15328 25-234); experiment: ECL sandwich on FRα, signal to background; capture 30G6.G6.G4.E9; binder = detection Ab
T1 construct: Calibrator of the ECL sandwich assays; also called FRα calibrator; FRα standard
T1 sequence (P15328 25-234 limits assumed): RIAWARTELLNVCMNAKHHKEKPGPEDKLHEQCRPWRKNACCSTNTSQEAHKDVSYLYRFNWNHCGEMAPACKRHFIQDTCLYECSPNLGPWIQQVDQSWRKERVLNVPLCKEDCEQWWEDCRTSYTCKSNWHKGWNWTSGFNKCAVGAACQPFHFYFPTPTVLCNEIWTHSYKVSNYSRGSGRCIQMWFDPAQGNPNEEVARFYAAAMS
So basically, if Average of S/B comes in under 200 it's Met, and if it's 200 or more it's Not met.

Please state whether Average of S/B is below 200 for Monoclonal antibody 1D2.D8.G10 (antibody, mouse IgG1, V domains shown, Murine IgG1 kappa from hybridoma; also called 1D2.D8.G0; ATCC PTA-123098) VH: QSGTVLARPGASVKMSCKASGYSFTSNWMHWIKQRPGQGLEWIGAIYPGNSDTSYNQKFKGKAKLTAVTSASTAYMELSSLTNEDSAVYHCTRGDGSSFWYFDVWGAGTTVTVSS VL: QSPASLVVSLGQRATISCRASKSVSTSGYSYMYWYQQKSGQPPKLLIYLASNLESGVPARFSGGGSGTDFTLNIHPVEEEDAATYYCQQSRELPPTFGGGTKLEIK
Met

Please state whether Average of S/B is below 200 for Monoclonal antibody 24H8.F3 (antibody, mouse IgG1, V domains shown, Murine IgG1 kappa from hybridoma; also called ATCC PTA-123097) VH: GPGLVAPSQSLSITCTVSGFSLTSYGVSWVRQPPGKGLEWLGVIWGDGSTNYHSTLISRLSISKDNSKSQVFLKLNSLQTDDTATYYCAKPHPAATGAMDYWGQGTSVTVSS VL: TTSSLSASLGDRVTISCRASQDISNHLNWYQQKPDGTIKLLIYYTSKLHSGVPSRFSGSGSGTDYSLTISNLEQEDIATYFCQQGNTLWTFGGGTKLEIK
Not met

Please state whether Average of S/B is below 200 for Monoclonal antibody 6A2.G7 (antibody, mouse IgG1, V domains shown, Murine IgG1 kappa from hybridoma; also called ATCC PTA-123093) VH: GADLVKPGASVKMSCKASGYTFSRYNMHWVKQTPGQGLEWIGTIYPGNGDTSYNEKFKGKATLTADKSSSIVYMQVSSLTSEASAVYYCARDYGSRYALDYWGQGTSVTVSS VL: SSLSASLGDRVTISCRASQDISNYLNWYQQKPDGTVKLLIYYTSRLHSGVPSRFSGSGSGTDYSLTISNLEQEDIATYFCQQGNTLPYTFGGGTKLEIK
Met

Please state whether Average of S/B is below 200 for Monoclonal antibody 19D4.B7 (antibody, mouse IgG2a, V domains shown, SULFO-TAG conjugated when used as detection antibody in the ECL assay; also called ATCC PTA-11884) VH: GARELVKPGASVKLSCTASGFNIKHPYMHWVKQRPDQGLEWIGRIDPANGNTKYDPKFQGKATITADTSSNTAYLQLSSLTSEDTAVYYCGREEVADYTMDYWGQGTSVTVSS VL: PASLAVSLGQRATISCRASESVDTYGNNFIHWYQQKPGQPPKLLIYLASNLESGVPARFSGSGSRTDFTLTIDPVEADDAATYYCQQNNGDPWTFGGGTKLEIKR
Met

Please state whether Average of S/B is below 200 for Monoclonal antibody 1C6.E12.G8 (antibody, mouse IgG1, V domains shown, Murine IgG1 kappa from hybridoma; also called ATCC PTA-123091) VH: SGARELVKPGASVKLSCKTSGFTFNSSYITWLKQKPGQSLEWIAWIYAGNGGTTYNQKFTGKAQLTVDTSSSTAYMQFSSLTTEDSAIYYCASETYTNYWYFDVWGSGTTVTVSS VL: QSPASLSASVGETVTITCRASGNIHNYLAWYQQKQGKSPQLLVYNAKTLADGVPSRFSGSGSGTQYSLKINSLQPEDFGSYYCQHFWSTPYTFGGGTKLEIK
Met

Please state whether Average of S/B is below 200 for Monoclonal antibody 1A8.G11.E7 (antibody, mouse IgG1, V domains shown, Murine IgG1 kappa from hybridoma; also called ATCC PTA-123100) VH: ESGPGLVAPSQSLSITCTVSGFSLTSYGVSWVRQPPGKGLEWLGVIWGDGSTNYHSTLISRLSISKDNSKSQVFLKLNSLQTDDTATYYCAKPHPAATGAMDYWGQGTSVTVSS VL: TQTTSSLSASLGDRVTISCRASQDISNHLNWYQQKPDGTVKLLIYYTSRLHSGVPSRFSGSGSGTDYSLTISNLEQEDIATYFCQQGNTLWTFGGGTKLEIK
Not met
